- Experimental conditions: in n-hexane, 293.15 K
Experimental endpoint: solubility (mole fraction)

1) CC(=O)Nc1ccc(/C=N/NC(N)=S)cc1 : 7.25e-06

====

- Experimental conditions: in n-hexane, 288.15 K
Experimental endpoint: solubility (mole fraction)

1) CC(=O)Nc1ccc(/C=N/NC(N)=S)cc1 : 5.55e-06

====

- Experimental conditions: in n-octanol, 298.15 K
Experimental endpoint: solubility (mole fraction)

1) CC(=O)Nc1ccc(/C=N/NC(N)=S)cc1 : 0.000503

====

- Experimental conditions: in n-octanol, 318.15 K
Experimental endpoint: solubility (mole fraction)

1) CC(=O)Nc1ccc(/C=N/NC(N)=S)cc1 : 0.000863
